# system-name: GPIIb/IIIa (Homo sapiens, UniProt P05106+P08514)
# Construct: purchased Enzyme Research Laboratories (South Bend, Ind.)
# Sequence (P08514 32-887 limits assumed): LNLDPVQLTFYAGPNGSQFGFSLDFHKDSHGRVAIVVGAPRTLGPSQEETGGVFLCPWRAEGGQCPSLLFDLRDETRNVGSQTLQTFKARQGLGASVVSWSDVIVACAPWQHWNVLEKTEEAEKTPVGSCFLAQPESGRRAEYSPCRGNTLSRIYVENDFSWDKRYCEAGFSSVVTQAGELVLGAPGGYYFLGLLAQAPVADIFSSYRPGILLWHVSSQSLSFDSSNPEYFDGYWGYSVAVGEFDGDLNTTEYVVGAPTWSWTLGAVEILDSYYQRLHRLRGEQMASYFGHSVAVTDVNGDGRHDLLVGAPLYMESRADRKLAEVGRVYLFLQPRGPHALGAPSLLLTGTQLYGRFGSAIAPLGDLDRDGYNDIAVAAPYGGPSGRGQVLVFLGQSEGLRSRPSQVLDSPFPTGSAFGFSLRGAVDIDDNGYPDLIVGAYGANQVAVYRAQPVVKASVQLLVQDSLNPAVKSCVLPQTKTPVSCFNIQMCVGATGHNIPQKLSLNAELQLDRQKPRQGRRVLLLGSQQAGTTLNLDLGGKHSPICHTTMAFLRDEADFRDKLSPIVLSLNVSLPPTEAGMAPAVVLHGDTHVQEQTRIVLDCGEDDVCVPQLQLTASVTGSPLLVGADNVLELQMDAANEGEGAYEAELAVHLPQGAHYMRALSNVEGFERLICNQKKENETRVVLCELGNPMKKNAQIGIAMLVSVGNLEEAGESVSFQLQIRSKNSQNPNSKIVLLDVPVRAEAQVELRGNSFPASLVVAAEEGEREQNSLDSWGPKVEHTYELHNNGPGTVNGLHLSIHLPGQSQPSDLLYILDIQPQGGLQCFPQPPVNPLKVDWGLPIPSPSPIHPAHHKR
# Sequence (P05106 27-788): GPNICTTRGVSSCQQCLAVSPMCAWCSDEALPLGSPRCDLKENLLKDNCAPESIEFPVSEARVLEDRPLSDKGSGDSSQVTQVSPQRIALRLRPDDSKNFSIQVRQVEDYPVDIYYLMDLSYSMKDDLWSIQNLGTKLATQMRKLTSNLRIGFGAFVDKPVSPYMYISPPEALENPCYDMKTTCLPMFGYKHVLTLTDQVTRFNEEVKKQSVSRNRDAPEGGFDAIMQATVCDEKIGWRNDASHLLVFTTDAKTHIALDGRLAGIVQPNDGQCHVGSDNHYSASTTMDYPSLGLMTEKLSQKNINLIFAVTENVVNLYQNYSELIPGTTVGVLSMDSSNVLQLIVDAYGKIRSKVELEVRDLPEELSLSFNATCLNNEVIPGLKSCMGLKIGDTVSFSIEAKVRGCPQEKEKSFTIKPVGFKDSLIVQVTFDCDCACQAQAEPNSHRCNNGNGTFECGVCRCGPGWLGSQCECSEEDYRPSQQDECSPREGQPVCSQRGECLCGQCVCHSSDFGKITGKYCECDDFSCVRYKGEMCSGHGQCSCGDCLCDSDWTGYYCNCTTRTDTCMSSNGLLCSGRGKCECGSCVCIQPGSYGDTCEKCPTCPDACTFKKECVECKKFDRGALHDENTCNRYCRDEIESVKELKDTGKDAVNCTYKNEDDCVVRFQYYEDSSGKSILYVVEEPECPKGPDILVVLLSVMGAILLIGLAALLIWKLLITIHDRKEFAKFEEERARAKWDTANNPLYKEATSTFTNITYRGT
# experiment: Fibrinogen binding ELISA (competitive binding ELISA: inhibition of fibrinogen binding to GPIIb/IIIa)
# assay-setup: Table 2; mean ± SEM, triplicate, repeated twice; peptide concentration as total molecule molarity, not normalized [RGD]; read-out: IC50(μM), inhibition of fibrinogen binding to GPIIb/IIIa
metric-name: IC50 (µM)

{"substance": "H-CGGRGDS-NH2 [Compound #1, H-CGGRGDS-NH2]", "metric-name": "IC50", "measured-value": 15.4}
